# system-under-test: hCB1 (Homo sapiens, UniProt P21554)
# Sequence (P21554 whole entry): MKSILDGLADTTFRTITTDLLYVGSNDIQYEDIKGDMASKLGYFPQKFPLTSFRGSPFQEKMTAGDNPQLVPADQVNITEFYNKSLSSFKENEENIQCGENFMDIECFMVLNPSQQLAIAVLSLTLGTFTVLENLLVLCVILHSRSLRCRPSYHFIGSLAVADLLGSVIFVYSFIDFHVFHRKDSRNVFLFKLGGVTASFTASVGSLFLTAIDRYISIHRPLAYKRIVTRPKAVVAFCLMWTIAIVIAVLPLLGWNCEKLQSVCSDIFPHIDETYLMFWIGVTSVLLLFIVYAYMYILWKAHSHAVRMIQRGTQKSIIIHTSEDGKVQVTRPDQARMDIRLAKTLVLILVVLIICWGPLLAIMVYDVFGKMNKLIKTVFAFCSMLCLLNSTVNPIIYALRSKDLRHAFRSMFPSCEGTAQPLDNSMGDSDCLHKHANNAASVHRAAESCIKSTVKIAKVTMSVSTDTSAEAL
# measurement-protocol: bioSensAll ebBRET signaling profiling, hCB1
# Type: cell-based
# Design: host or cells: HEK293SL cells, transient PEI transfection
# setup-conditions: Log [Compound] (M) -6.72585; single replicate values, FigS6a
hey, just use true if measured GoB hCB1 is less than 30, otherwise false

Sample answers from the record:
{"columns": ["compound", "qualitative-label"],
 "data": [
  ["Cc1cc(C(=O)NC(c2ccco2)c2ccco2)nn1-c1cccc(C(F)(F)F)c1", "false"],
  ["Brc1cc2c(cc1Cc1noc(-c3cnn(CC4CC4)c3)n1)OCO2", "true"],
  ["COC(=O)C(NC(=O)c1cc(C)n(-c2cccc(F)c2)n1)c1cccs1 (centres unmarked)", "true"],
  ["COC(=O)[C@@H]1[C@@H]2CC[C@@H]2CN1C(=O)c1cc(C)n(-c2cccc(C(F)(F)F)c2)n1", "true"],
  ["Cn1nc(-c2nnc(C(C)(C)Oc3ccc(Cl)cc3)o2)c2ccccc2c1=O", "true"]
]}

Input line: Determine if Cc1cc(C(=O)NC(c2ccccc2)c2ccco2)nn1-c1cccc(C(F)(F)F)c1 (centres unmarked) shows GoB hCB1 strictly lower than 30.
Output line: true

Input line: And then `COC(=O)[C@@H]1[C@@H]2CCC[C@@H]2CN1C(=O)c1cc(C)n(-c2cccc(C(F)(F)F)c2)n1` , what is it?
Output line: false

Input line: And then `Cc1cc(C(=O)N2CC3(CCC3)[C@H]2[C@@H]2CCCO2)nn1-c1cccc(C(F)(F)F)c1` , what is it?
Output line: true

###

# system-under-test: hCB1 (Homo sapiens, UniProt P21554)
# measurement-protocol: bioSensAll ebBRET signaling profiling, hCB1
# Format: cell-based
# Parameters: host or cells: HEK293SL cells, transient PEI transfection
# setup-conditions: read-out: EC50 [95% CI]; hCB1 GoB
readout-label: log10 of EC50 (log10 of the value in µM)
Kindly note that the scale is log10 and the underlying EC50 is in µM.

{"columns": ["compound", "log10 of EC50"],
 "data": [
  ["COC(=O)[C@@H]1[C@@H]2CCC[C@@H]2CN1C(=O)c1cc(C)n(-c2cccc(C(F)(F)F)c2)n1", -1.22],
  ["Cc1cc(C(=O)N2CC3(CCC3)[C@H]2[C@@H]2CCCO2)nn1-c1cccc(C(F)(F)F)c1", 0.83],
  ["Cc1c(C(=O)OCC2CSc3ccccc3O2)cnn1Cc1ccccc1 (centres unmarked)", -0.22]
]}

Hi there! I need log10 of EC50 for each item below, if you can.
1. Cc1cc(C(=O)NC(c2ccco2)c2ccco2)nn1-c1cccc(C(F)(F)F)c1
2. COC(=O)[C@](C)(NC(=O)c1cc(C)n(-c2cccc(C(F)(F)F)c2)n1)c1cccs1
3. COC(=O)C(C)(NC(=O)c1cc(C)n(-c2cccc(C(F)(F)F)c2)n1)c1cccs1 (centres unmarked)
4. Cc1nn(Cc2ccc(Cl)cc2)c(C)c1C(=O)OCC1CSc2ccccc2O1 (centres unmarked)
5. COC(=O)[C@@](C)(NC(=O)c1cc(C)n(-c2cccc(C(F)(F)F)c2)n1)c1cccs1

Output line:
1. -1.43
2. -1.74
3. -3.19
4. 0.87
5. -3.54

###

# system-under-test: hCB1 (Homo sapiens, UniProt P21554)
# measurement-protocol: Lance Ultra cAMP accumulation assay, CHO cells;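 further: human CB1R stably expressed in CHO cells, ligands co-incubated with forskolin at room temperature, read-out is lowering of forskolin-stimulated cAMP accumulation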
# Format: cell-based
# Set-up: expressed in transfected cells
# setup-conditions: CHO
Field: Emax. Provide a value for each of the compounds that follow.
Give bare numbers, in %.

Below: 4 compounds and their reported Emax.
{"columns": ["compound", "system-under-test", "measured"],
 "data": [
  ["COC(=O)C(C)(NC(=O)c1cc(C)n(-c2cccc(C(F)(F)F)c2)n1)c1cccs1 (centres unmarked) [‘4042]", "hCB1 (Homo sapiens, UniProt P21554)", 78],
  ["Cc1cc(C(=O)NC(C)(c2ccco2)c2ccco2)nn1-c1cccc(C(F)(F)F)c1 [‘4936]", "hCB1 (Homo sapiens, UniProt P21554)", 65],
  ["COC(=O)C(NC(=O)c1cc(C)n(-c2cccc(C(F)(F)F)c2)n1)c1cccs1 (centres unmarked) [‘60154]", "hCB1 (Homo sapiens, UniProt P21554)", 67],
  ["COC(=O)[C@](C)(NC(=O)c1cc(C)n(-c2cccc(C(F)(F)F)c2)n1)c1cccs1 [‘8690]", "hCB1 (Homo sapiens, UniProt P21554)", 53]
]}

Field: next compound
Input line: Look up Emax: COC(=O)[C@@](C)(NC(=O)c1cc(C)n(-c2cccc(C(F)(F)F)c2)n1)c1cccs1 [‘1350]
Output line: 77

###

# system-under-test: CB1 (rCB1) (Rattus norvegicus, UniProt P20272)
# Sequence (P20272 whole entry): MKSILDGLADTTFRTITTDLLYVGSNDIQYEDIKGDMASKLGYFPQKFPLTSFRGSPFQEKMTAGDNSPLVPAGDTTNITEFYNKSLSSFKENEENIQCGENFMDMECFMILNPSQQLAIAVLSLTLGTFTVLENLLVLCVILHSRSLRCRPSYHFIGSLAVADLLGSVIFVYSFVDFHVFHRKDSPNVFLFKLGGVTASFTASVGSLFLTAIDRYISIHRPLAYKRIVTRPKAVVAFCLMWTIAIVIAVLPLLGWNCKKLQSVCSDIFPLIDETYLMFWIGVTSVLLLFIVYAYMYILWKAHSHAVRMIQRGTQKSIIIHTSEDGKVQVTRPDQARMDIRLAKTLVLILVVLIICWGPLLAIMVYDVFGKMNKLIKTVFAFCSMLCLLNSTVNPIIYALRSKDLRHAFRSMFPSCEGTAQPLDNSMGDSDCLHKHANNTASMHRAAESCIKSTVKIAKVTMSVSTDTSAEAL
# measurement-protocol: Single-point radioligand displacement screen
# Assay type: binding
# setup-conditions: Figure 1c source data, replicate 1
Field: rep1_displacement. Provide a value for each of the compounds that follow.
Give bare numbers.

Hi there! I need rep1_displacement for each item below, if you can.
1. Cc1cc(C(=O)NC(c2cccnc2)C2CC2)nn1-c1cccc(C#N)c1 (stereo not drawn)
2. CC1C(C(F)(F)F)CCN1C(=O)c1csc(N(C)c2ccccc2)n1 (stereo not drawn)
3. COc1ccc(Cl)c(-c2cc(C(=O)N3CCOC[C@@H]3CC(C)C)on2)c1

Output line:
1: 34.5; 2: 31.7; 3: 62.5

###

# system-under-test: hCB1 (Homo sapiens)
# measurement-protocol: bioSensAll ebBRET signaling profiling, hCB1
# Assay type: cell-based
# Parameters: host or cells: HEK293SL cells, transient PEI transfection
# setup-conditions: Gi1 biosensor; Log [Compound] (M) -5.89285
Field: Gi1 hCB1 response. Provide a value for each of the compounds that follow.
Give bare numbers.

Below: 3 compounds and their reported Gi1 hCB1 response.
{"columns": ["compound", "system-under-test", "Gi1 hCB1 response"],
 "data": [
  ["CC(=O)C(c1cccs1)N(C)C(=O)c1cc(C)n(-c2cccc(C(F)(F)F)c2)n1 (stereo not shown)", "hCB1 (Homo sapiens)", 25.0333],
  ["COC(=O)[C@@H]1[C@@H]2CCC[C@@H]2CN1C(=O)c1cc(C)n(-c2cccc(Cl)c2)n1 (racemic)", "hCB1 (Homo sapiens)", 64.3799],
  ["COC(=O)[C@@H]1[C@@H]2CC[C@@H]2CN1C(=O)c1cc(C)n(-c2cccc(C(F)(F)F)c2)n1", "hCB1 (Homo sapiens)", 80.4274]
]}

Input line: Look up Gi1 hCB1 response: `Cc1cc(C(=O)N2CC3(CCC3)[C@H]2[C@@H]2CCCO2)nn1-c1cccc(C(F)(F)F)c1`
Output line: 63.8428

###

# system-under-test: hCB1 (Homo sapiens)
# measurement-protocol: bioSensAll ebBRET signaling profiling, hCB1
# Format: cell-based
# Set-up: host or cells: HEK293SL cells, transient PEI transfection
# setup-conditions: Log [Compound] (M) -8; single replicate values, FigS6a
hey, just use Yes if measured GoB hCB1 is less than 3, otherwise No

{"columns": ["molecule", "qualitative-label"],
 "data": [
  ["Cc1cc(C(=O)N2CC3(CCC3)[C@@H]2[C@H]2CCCO2)nn1-c1cccc(C(F)(F)F)c1 (single isomer, unassigned) [compound 430]", "No"],
  ["Cc1cc(C(=O)NC(c2ccco2)c2ccco2)nn1-c1cccc(C(F)(F)F)c1 [‘1090]", "No"],
  ["CC(=O)C(c1cccs1)N(C)C(=O)c1cc(C)n(-c2cccc(C(F)(F)F)c2)n1 (stereo not drawn) [‘6829]", "Yes"]
]}

Input line: Determine if Cc1cc(C(=O)N2CC3(CCC3)[C@H]2[C@@H]2CCCO2)nn1-c1cccc(C(F)(F)F)c1 [‘5490] shows GoB hCB1 strictly lower than 3.
Output line: No

Input line: And then Cn1nc(-c2nnc(C(C)(C)Oc3ccc(C(F)(F)F)cc3)o2)c2ccccc2c1=O [‘2153] , what is it?
Output line: Yes

Input line: And then COC(=O)[C@@H]1[C@@H]2CCC[C@@H]2CN1C(=O)c1cc(C)n(-c2cccc(Cl)c2)n1 (racemic) [‘10010] , what is it?
Output line: Yes

Input line: And then Brc1cc2c(cc1Cc1noc(-c3cnn(CC4CC4)c3)n1)OCO2 [‘5424] , what is it?
Output line: Yes

###

# system-under-test: hCB1 (Homo sapiens)
# measurement-protocol: bioSensAll ebBRET signaling profiling, hCB1
# Format: cell-based
# Set-up: host or cells: HEK293SL cells, transient PEI transfection
# setup-conditions: Log [Compound] (M) -12.8861; single replicate values, FigS6a
hey, just use 1 (yes) if measured GoB hCB1 is less than 2, otherwise 0 (no)

Sample answers from the record:
{"columns": ["compound", "system-under-test", "qualitative-label"],
 "data": [
  ["COC(=O)[C@@H]1[C@@H]2CC[C@@H]2CN1C(=O)c1cc(C)n(-c2cccc(C(F)(F)F)c2)n1 [‘6448]", "hCB1 (Homo sapiens)", "1 (yes)"],
  ["Cn1nc(-c2nnc(C(C)(C)Oc3ccc(Cl)cc3)o2)c2ccccc2c1=O [‘0450]", "hCB1 (Homo sapiens)", "1 (yes)"],
  ["Cc1cc(C(=O)N2CC3(CCC3)[C@H]2[C@H]2CCCO2)nn1-c1cccc(C(F)(F)F)c1 [‘1651]", "hCB1 (Homo sapiens)", "0 (no)"],
  ["Cc1cc(C(=O)NC(c2ccccc2)c2ccco2)nn1-c1cccc(C#N)c1 (stereo not drawn) [‘12565]", "hCB1 (Homo sapiens)", "1 (yes)"],
  ["Cc1cc(C(=O)NC(c2ccccc2)c2ccco2)nn1-c1cccc(C(F)(F)F)c1 (stereo not drawn) [‘1081]", "hCB1 (Homo sapiens)", "1 (yes)"],
  ["COC(=O)[C@@H]1[C@@H]2CCC[C@@H]2CN1C(=O)c1cc(C)n(-c2cccc(C(F)(F)F)c2)n1 [‘6439]", "hCB1 (Homo sapiens)", "1 (yes)"],
  ["COc1cccc(C(NC(=O)c2cc(C)n(-c3cccc(C(F)(F)F)c3)n2)c2ccco2)c1 (stereo not drawn) [‘1087]", "hCB1 (Homo sapiens)", "0 (no)"],
  ["Cc1cc(C(=O)N2CC3(CCC3)[C@H]2[C@@H]2CCCO2)nn1-c1cccc(C(F)(F)F)c1 [‘5490]", "hCB1 (Homo sapiens)", "0 (no)"],
  ["Cn1nc(-c2nnc(C(C)(C)Oc3ccc(C(F)(F)F)cc3)o2)c2ccccc2c1=O [‘2153]", "hCB1 (Homo sapiens)", "1 (yes)"],
  ["CC(=O)C(c1cccs1)N(C)C(=O)c1cc(C)n(-c2cccc(C(F)(F)F)c2)n1 (stereo not drawn) [‘6829]", "hCB1 (Homo sapiens)", "0 (no)"]
]}

Input line: Determine if Cc1nc(CC2CC2)oc1-c1nc(Cc2cc3c(cc2Br)OCO3)no1 [‘7019] shows GoB hCB1 strictly lower than 2.
Output line: 1 (yes)

Input line: And then Cc1cc(C(=O)N2CC3(CCC3)[C@@H]2[C@@H]2CCCO2)nn1-c1cccc(C(F)(F)F)c1 [‘3386] , what is it?
Output line: 1 (yes)

Input line: And then Cc1cc(C(=O)N(C)C(c2ccco2)c2ccco2)nn1-c1cccc(C(F)(F)F)c1 [‘4388] , what is it?
Output line: 1 (yes)

Where these numbers come from: paper PMC11882969
